Data credit: patent US6310095A

Target: protein farnesyltransferase (Rattus norvegicus, UniProt Q02293+Q04631)
Construct: Rat brain protein farnesyltransferase activity is measured; from tissue; host or cells: rat brain; purified according to Reiss et al., Cell 62:81-88 (1990), steps one through three
Assay: in vitro inhibition of protein farnesyltransferase (scintillation proximity assay, biotin-K Ras B fragment)
Assay type: biochemical
Conditions: at 1 × 10^-6 M; read-out: % inhibition of farnesyltransferase
Where a name gives a salt, the structure may show the parent alone.
Lab note: anything with inhibition at 1 µM at or over 80% counts as 1; the rest go in -1.

{"compound": "CSCC[C@H](NC(=O)c1ccc(CN(CC(C)C)C(CC2CCCCC2)CC2CCCCC2)cc1-c1ccccc1C)C(=O)O [Example 908]", "category": 1}
{"compound": "CSCC[C@H](NC(=O)c1ccc(CNc2cccc(C(N)=O)c2)cc1-c1ccccc1)C(=O)O [Example 682]", "category": -1}
{"compound": "CSCCC(CO)NCc1ccc(C(=O)N[C@@H](CCSC)C(=O)O)c(-c2ccccc2)c1 (stereo partly shown) [Example 633]", "category": -1}
{"compound": "CSCC[C@H](NC(=O)c1ccc(CNc2ccc(N3CCCCC3)cc2)cc1-c1ccccc1)C(=O)O [Example 697]", "category": -1}
{"compound": "COc1ccc(CNCc2ccc(C(=O)N[C@@H](CCSC)C(=O)O)c(-c3ccccc3)c2)c(OC)c1 [Example 655]", "category": -1}
{"compound": "CNCC(=O)Nc1ccc(C(=O)N[C@@H](CCSC)C(=O)O)c(-c2ccccc2)c1 [Example 749]", "category": 1}
{"compound": "CSCC[C@H](NC(=O)c1ccc(CNCCC2CCCCC2)cc1-c1ccccc1C)C(=O)O [Example 607, Trifluoroacetate Salt]", "category": 1}
{"compound": "CSCC[C@H](NC(=O)c1ccc(NC(=O)OCCCl)cc1-c1ccccc1)C(=O)O [Example 979]", "category": -1}
{"compound": "CSCC[C@H](NC(=O)c1ccc(CNCC(O)c2cccc(O)c2)cc1-c1ccccc1)C(=O)O (stereo partly shown) [Example 661]", "category": -1}
{"compound": "CSCCC(NC(=O)c1ccc(NC(=O)Cc2cscn2)cc1-c1ccccc1)C(=O)O (stereo not shown) [Example 162]", "category": -1}
{"compound": "CCSC[C@H](CC1CCCCC1)NCc1ccc(C(=O)N(C)[C@@H](CCSC)C(=O)O)c(-c2ccccc2C)c1 [Example 765, lithium salt]", "category": -1}
{"compound": "CSCC[C@H](NC(=O)c1ccc(CN(C)CC(O)CO)cc1-c1ccccc1C)C(=O)O (stereo partly shown) [Example 719]", "category": 1}
{"compound": "CSCC[C@H](NC(=O)c1ccc(CN(C)CCc2ccccc2)cc1-c1ccccc1C)C(=O)O [Example 516, lithium salt]", "category": 1}
{"compound": "CSCC[C@H](NC(=O)c1ccc(CNCCN(C(C)C)C(C)C)cc1-c1ccccc1)C(=O)O [Example 636]", "category": -1}
{"compound": "CSCC[C@H](NC(=O)c1ccc(NC(=O)OCc2cncs2)cc1-c1ccccc1C)C(=O)O [Example 902, lithium salt]", "category": 1}
